# test target: substance P receptor (Homo sapiens)
# Construct: The receptor was prepared from human lymphoblast cells (IM-9); endogenous in cells
# Sequence (P25103 whole entry): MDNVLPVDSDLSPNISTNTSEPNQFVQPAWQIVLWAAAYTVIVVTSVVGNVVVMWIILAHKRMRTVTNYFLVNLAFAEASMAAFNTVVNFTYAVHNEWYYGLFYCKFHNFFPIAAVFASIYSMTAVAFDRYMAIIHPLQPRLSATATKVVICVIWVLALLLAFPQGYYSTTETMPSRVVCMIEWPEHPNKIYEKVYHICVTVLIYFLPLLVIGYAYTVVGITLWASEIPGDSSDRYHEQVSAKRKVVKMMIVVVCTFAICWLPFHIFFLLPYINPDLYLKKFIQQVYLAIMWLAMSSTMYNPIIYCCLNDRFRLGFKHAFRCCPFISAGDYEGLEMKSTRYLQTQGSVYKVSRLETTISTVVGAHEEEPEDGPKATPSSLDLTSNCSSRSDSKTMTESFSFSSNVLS
# assay procedure: Radioligand receptor binding inhibitory activity (125I-BHSP binding, receptor from IM-9 cells)
# cond: receptor from human lymphoblast cells (IM-9); radioligand 125I-BHSP; 25° C., 30 min
# Method: Radioligand Receptor Binding Inhibitory Activity (Binding Inhibitory Activity Using Receptor from Human Lymphoblast Cells (IM-9)) The method of M. A. Cascieri et al., “Molecular Pharmacology, vol. 42, p. 458 (1992)” was modified and used. The receptor was prepared from human lymphoblast cells (IM-9). IM-9 cells (2×10^5 cells/mL) were inoculated and incubated for 3 days, which was then subjected to centrifugation for 10 min. at 500×G to give cell pellets. […]
Counter-ions that a name gives are not always drawn.
# if measured IC50 < 0.06 nM: 1.0  # else: 0.0

Solved entries:
molecule	group label
Cc1cc(F)ccc1[C@@H]1CN(CC(N)=O)CC[C@H]1C(=O)N(Cc1cc(C(F)(F)F)cc(C(F)(F)F)c1)C1CC1 (relative stereo) [Example 169, monohydrochloride]	0.0
Cc1cc(F)ccc1[C@@H]1CN(CC(=O)N2CCC(O)CC2)CC[C@H]1C(=O)N(C)Cc1cc(C(F)(F)F)cc(C(F)(F)F)c1 (relative stereo) [Example 104, monohydrochloride]	1.0
Cc1cc(F)ccc1[C@@H]1CN(CCC(C)(C)O)CC[C@H]1C(=O)N(C)Cc1cc(C(F)(F)F)cc(C(F)(F)F)c1 (relative stereo) [Example 123, monohydrochloride]	1.0
Cc1cc(F)ccc1[C@H]1CN(C(=O)C2CCN(C(=O)[C@H](C)O)CC2)CC[C@@H]1C(=O)N(C)Cc1cc(C(F)(F)F)cc(C(F)(F)F)c1 [Example 150]	1.0
Cc1cc(F)ccc1[C@H]1CN(C(=O)C2CCN(C(=O)CO)CC2)CC[C@@H]1C(=O)N(C)Cc1cc(C(F)(F)F)cc(C(F)(F)F)c1 [Example 149]	1.0
Cc1ccccc1[C@H]1CN(C(=O)CN2C(=O)OC(C)(C)C2=O)CC[C@@H]1C(=O)N(C)[C@@H](C)c1cc(C(F)(F)F)cc(C(F)(F)F)c1 [Example 30]	1.0
Cc1ccccc1[C@H]1CN(C(=O)C2CCN(C(=O)CO)CC2)CC[C@@H]1C(=O)N(C)Cc1cc(C(F)(F)F)cc(C(F)(F)F)c1 [Example 18]	1.0
Cc1ccccc1[C@H]1CN(C(=O)C2CCN(C(=O)[C@@H](C)O)CC2)CC[C@@H]1C(=O)N(C)Cc1cc(C(F)(F)F)cc(C(F)(F)F)c1 [Example 29]	1.0
Cc1cc(F)ccc1[C@@H]1CN(CC(N)=O)CC[C@H]1C(=O)N(C)Cc1cc(C(F)(F)F)cc(C(F)(F)F)c1 (relative stereo) [Example 112, monohydrochloride]	1.0
Cc1ccsc1C1CN(C(=O)C2CCN(C(=O)CO)CC2)CCC1C(=O)N(C)[C@@H](C)c1cc(C(F)(F)F)cc(C(F)(F)F)c1 (single isomer, unassigned; more polar) [Example 176]	1.0

Task: I'd appreciate it if you could check whether CC(=O)Nc1ccc(N2CC[C@@H](C(=O)N(C)Cc3cc(C(F)(F)F)cc(C(F)(F)F)c3)[C@H](c3ccc(F)cc3C)C2)nc1 (relative stereo) [Example 129, monohydrochloride] has IC50 smaller than 0.06 nM.
Output: 0.0

Task: Determine if Cc1cc(F)ccc1[C@@H]1CN(S(=O)(=O)c2ccccn2)CC[C@H]1C(=O)N(C)Cc1cc(C(F)(F)F)cc(C(F)(F)F)c1 (relative stereo) [Example 144] shows IC50 strictly lower than 0.06 nM.
Output: 1.0

Task: Take the molecule Cc1cc(F)ccc1[C@H]1CN(C(=O)C2CCN(C(=O)CO)CC2)CC[C@@H]1C(=O)N(C)[C@@H](C)c1cc(C(F)(F)F)cc(C(F)(F)F)c1 [Example 152] and say whether its IC50 is less than 0.06 nM.
Output: 1.0

Task: # check: IC50 < 0.06 nM for CCOCCS(=O)(=O)N1CC[C@@H](C(=O)N(C)Cc2cc(C(F)(F)F)cc(C(F)(F)F)c2)[C@H](c2ccc(F)cc2C)C1 (relative stereo) [Example 138]
Output: 0.0

Task: Take the molecule Cc1cc(F)ccc1[C@@H]1CN(C2CCN(C(N)=O)CC2)CC[C@H]1C(=O)N(C)Cc1cc(C(F)(F)F)cc(C(F)(F)F)c1 (relative stereo) [Example 109, monohydrochloride] and say whether its IC50 is less than 0.06 nM.
Output: 1.0

Task: Dear colleague, could you confirm whether IC50 of Cc1cc(F)ccc1[C@H]1CN(C(=O)CN2C(=O)OC(C)(C)C2=O)CC[C@@H]1C(=O)N(C)[C@@H](C)c1cc(C(F)(F)F)cc(C(F)(F)F)c1 [Example 154] falls below 0.06 nM? Thanks.
Output: 0.0

Task: State whether 0.06 nM exceeds IC50 recorded for Cc1cc(F)ccc1[C@H]1CN(C(=O)c2cncnc2)CC[C@@H]1C(=O)N(C)[C@@H](C)c1cc(C(F)(F)F)cc(C(F)(F)F)c1 [Example 158] .
Output: 1.0

Task: Confirm or reject: IC50 of Cc1cc(F)ccc1[C@@H]1CN(S(=O)(=O)N(C)C)CC[C@H]1C(=O)N(C)Cc1cc(C(F)(F)F)cc(C(F)(F)F)c1 (relative stereo) [Example 142] lies strictly below 0.06 nM
Output: 1.0
